We begin with a simple list: items and their reported shrunken log2 fold change.
tested on: Escherichia coli TOP10; experiment: shrunken log2 fold change of peptide-encoding DNA abundance (4.5 h post-induction vs induction); higher = less antimicrobial activity (less host growth inhibition); conditions: time post-induction: 4.5 h; library: site-saturation at positions 5, 18, 19, 20
Lab note: jot the number down without any unit.

[
  {
    "biopolymer_sequence": "RRIRRRPPRLPRPRPRPNKHPRP",
    "measure": "shrunken log2 fold change",
    "value_observed": 0.117
  },
  {
    "biopolymer_sequence": "RRIRWRPPRLPRPRPRPKGLPRP",
    "measure": "shrunken log2 fold change",
    "value_observed": -0.0645
  },
  {
    "biopolymer_sequence": "RRIRSRPPRLPRPRPRPLDYPRP",
    "measure": "shrunken log2 fold change",
    "value_observed": -0.194
  },
  {
    "biopolymer_sequence": "RRIRTRPPRLPRPRPRPAMAPRP",
    "measure": "shrunken log2 fold change",
    "value_observed": 0.392
  },
  {
    "biopolymer_sequence": "RRIRARPPRLPRPRPRPKSDPRP",
    "measure": "shrunken log2 fold change",
    "value_observed": 0.239
  }
]

# input Bench note: what shrunken log2 fold change did `RRIRRRPPRLPRPRPRPPHEPRP` show?
# output 0.449

# input Given the entry `RRIRNRPPRLPRPRPRPHPEPRP` , report its measured shrunken log2 fold change.
# output 0.00649

# input For the sequence shown here, `RRIRMRPPRLPRPRPRPRYRPRP` , give the reported shrunken log2 fold change.
# output 0.307

# input Item under review: `RRIRQRPPRLPRPRPRPLRSPRP` . Reported shrunken log2 fold change?
# output 0.208

# input sequence: `RRIRWRPPRLPRPRPRPHNLPRP` ; wanted: its shrunken log2 fold change
# output -0.414

# input # get_value(readout='shrunken log2 fold change', item= `RRIRKRPPRLPRPRPRPQQKPRP` )
# output 0.206

# input What value of shrunken log2 fold change has been recorded for this entry: `RRIRFRPPRLPRPRPRPWAHPRP`
# output 0.195

* * *

This listing pairs sequences with measured shrunken log2 fold change.
test system: Escherichia coli TOP10; test: shrunken log2 fold change of peptide-encoding DNA abundance (4.5 h post-induction vs induction); higher = less antimicrobial activity (less host growth inhibition); conditions: time post-induction: 4.5 h; library: site-saturation at positions 5, 18, 19, 20
Respond with the number and no other words.

Record excerpt, results attached:
[
  {
    "biopolymer_sequence": "RRIRPRPPRLPRPRPRPNYPPRP",
    "measure": "shrunken log2 fold change",
    "value_observed": -0.392
  },
  {
    "biopolymer_sequence": "RRIRVRPPRLPRPRPRPSITPRP",
    "measure": "shrunken log2 fold change",
    "value_observed": -0.504
  },
  {
    "biopolymer_sequence": "RRIRVRPPRLPRPRPRPDWDPRP",
    "measure": "shrunken log2 fold change",
    "value_observed": 0.0311
  },
  {
    "biopolymer_sequence": "RRIRGRPPRLPRPRPRPTNPPRP",
    "measure": "shrunken log2 fold change",
    "value_observed": 0.367
  },
  {
    "biopolymer_sequence": "RRIRMRPPRLPRPRPRPWGRPRP",
    "measure": "shrunken log2 fold change",
    "value_observed": 0.389
  }
]

# input Can you share its shrunken log2 fold change? I mean this sequence: `RRIRGRPPRLPRPRPRPMNNPRP`
# output 0.18

# input Which shrunken log2 fold change is reported for this sequence? `RRIRYRPPRLPRPRPRPRYQPRP`
# output -0.0935

# input Please report the recorded shrunken log2 fold change for `RRIRQRPPRLPRPRPRPWAYPRP` .
# output -0.11

* * *

system: Escherichia coli TOP10; assay: shrunken log2 fold change of peptide-encoding DNA abundance (4.5 h post-induction vs induction); higher = less antimicrobial activity (less host growth inhibition); details: time post-induction: 4.5 h; library: site-saturation at positions 5, 18, 19, 20
measure: shrunken log2 fold change
Reply briefly: the number, and no unit.

# input Look up shrunken log2 fold change: `RRIRQRPPRLPRPRPRPHRSPRP`
# output -0.00875

# input Can you look up the measured shrunken log2 fold change of `RRIRARPPRLPRPRPRPTMEPRP` for me?
# output 0.564

# input For `RRIRGRPPRLPRPRPRPYAMPRP` , what is its reported shrunken log2 fold change?
# output 0.451

# input So what does the record say about shrunken log2 fold change for `RRIRTRPPRLPRPRPRPTRPPRP` ?
# output 0.614

# input So what does the record say about shrunken log2 fold change for `RRIRMRPPRLPRPRPRPPTGPRP` ?
# output 0.858

# input // query shrunken log2 fold change value for entry `RRIRNRPPRLPRPRPRPYINPRP`
# output -0.801

* * *

tested on: Escherichia coli TOP10; assay: shrunken log2 fold change of peptide-encoding DNA abundance (4.5 h post-induction vs induction); higher = less antimicrobial activity (less host growth inhibition); conditions: time post-induction: 4.5 h; library: site-saturation at positions 5, 18, 19, 20
measure: shrunken log2 fold change
Lab note: jot the number down without any unit.

[
  {
    "biopolymer_sequence": "RRIRNRPPRLPRPRPRPTGWPRP",
    "study_system": "Escherichia coli TOP10",
    "shrunken log2 fold change": 0.355
  },
  {
    "biopolymer_sequence": "RRIRVRPPRLPRPRPRPSEEPRP",
    "study_system": "Escherichia coli TOP10",
    "shrunken log2 fold change": 0.00143
  },
  {
    "biopolymer_sequence": "RRIRIRPPRLPRPRPRPGAEPRP",
    "study_system": "Escherichia coli TOP10",
    "shrunken log2 fold change": 0.0273
  },
  {
    "biopolymer_sequence": "RRIRTRPPRLPRPRPRPSYSPRP",
    "study_system": "Escherichia coli TOP10",
    "shrunken log2 fold change": -0.316
  }
]

# input Param readout= shrunken log2 fold change; system= Escherichia coli TOP10; entry= `RRIRGRPPRLPRPRPRPEQRPRP` ; returns value.
# output 0.926

# input Record lookup: for Escherichia coli TOP10, what shrunken log2 fold change belongs to `RRIRERPPRLPRPRPRPSCVPRP` ?
# output -0.356

# input Record lookup: for Escherichia coli TOP10, what shrunken log2 fold change belongs to `RRIRFRPPRLPRPRPRPGLSPRP` ?
# output -0.0429

# input For Escherichia coli TOP10, provide shrunken log2 fold change of `RRIRSRPPRLPRPRPRPIVIPRP` please.
# output -0.872

* * *

test system: Escherichia coli TOP10; test: shrunken log2 fold change of peptide-encoding DNA abundance (4.5 h post-induction vs induction); higher = less antimicrobial activity (less host growth inhibition); settings: time post-induction: 4.5 h; library: site-saturation at positions 5, 18, 19, 20
Measured shrunken log2 fold change by item
Answer with a bare number; do not write a unit.

Sample answers from the record:
[
  {
    "biopolymer_sequence": "RRIRWRPPRLPRPRPRPYGNPRP",
    "value_observed": -0.338
  },
  {
    "biopolymer_sequence": "RRIRKRPPRLPRPRPRPCFMPRP",
    "value_observed": -0.0787
  },
  {
    "biopolymer_sequence": "RRIRYRPPRLPRPRPRPILPPRP",
    "value_observed": 0.00451
  }
]

# input // returns reported shrunken log2 fold change for input `RRIRVRPPRLPRPRPRPKKSPRP`
# output 0.585

# input What value of measured shrunken log2 fold change is listed for `RRIRWRPPRLPRPRPRPKEDPRP` ?
# output 0.0809

# input // returns reported shrunken log2 fold change for input `RRIRDRPPRLPRPRPRPCCVPRP`
# output -0.158

* * *

tested on: Escherichia coli TOP10; experiment: shrunken log2 fold change of peptide-encoding DNA abundance (4.5 h post-induction vs induction); higher = less antimicrobial activity (less host growth inhibition); details: time post-induction: 4.5 h; library: site-saturation at positions 5, 18, 19, 20;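 further: peptides expressed intracellularly from a pBAD plasmid library in pooled LB shake-flask culture, induced with 0.3% L-arabinose, DNA abundance read by NGS, three biological replicates, DESeq2 with apeglm shrinkage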
measure: shrunken log2 fold change
Just the number.

Example cases with answers are listed next.
[
  {
    "biopolymer_sequence": "RRIRVRPPRLPRPRPRPERFPRP",
    "measure": "shrunken log2 fold change",
    "value_observed": -0.023
  },
  {
    "biopolymer_sequence": "RRIRRRPPRLPRPRPRPDRYPRP",
    "measure": "shrunken log2 fold change",
    "value_observed": -0.0438
  },
  {
    "biopolymer_sequence": "RRIRARPPRLPRPRPRPPYNPRP",
    "measure": "shrunken log2 fold change",
    "value_observed": -0.399
  },
  {
    "biopolymer_sequence": "RRIRNRPPRLPRPRPRPLLCPRP",
    "measure": "shrunken log2 fold change",
    "value_observed": 0.0225
  },
  {
    "biopolymer_sequence": "RRIRERPPRLPRPRPRPERHPRP",
    "measure": "shrunken log2 fold change",
    "value_observed": -0.152
  }
]

# input Given the sequence `RRIRHRPPRLPRPRPRPLQMPRP` , what is its reported shrunken log2 fold change?
# output -0.147

# input Give the measured shrunken log2 fold change of `RRIRARPPRLPRPRPRPCPIPRP` .
# output -0.244

# input For the sequence shown here, `RRIRKRPPRLPRPRPRPFVPPRP` , give the reported shrunken log2 fold change.
# output -0.297
